Measured Kd by item
Target: T1, human IL-36α(R12), truncated (human, UniProt Q9UHA7 6-158)
T1 construct: Untagged after removal of the His-SUMO tag; also called hIL-36alpha
T1 chain: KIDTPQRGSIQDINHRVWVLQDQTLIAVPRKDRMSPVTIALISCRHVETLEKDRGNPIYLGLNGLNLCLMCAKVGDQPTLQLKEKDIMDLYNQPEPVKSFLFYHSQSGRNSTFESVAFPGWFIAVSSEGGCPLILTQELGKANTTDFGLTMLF
Experiment: SPR, Biacore, 1:1 Langmuir fit
Experimental: The humanized antibodies obtained in Example 6 were tested for their binding to recombinant human or cynomolgus macaque IL36a and IL-36γ in Biacore assays. The association time was set to 60 seconds, and the final dissociation time was set to 600 seconds. Equilibrium dissociation constant KD (kd/ka) of exemplary antibodies was determined using a 1:1 Langmuir fit model (see Tables 17-18 below).
Provide the reading as a plain figure in nM.

Some solved cases for reference:
144L249B (antibody, V domains shown, Mouse monoclonal from hybridoma; mouse IgG heavy and lambda light chain; also called mouse antibody 144L249B) VH: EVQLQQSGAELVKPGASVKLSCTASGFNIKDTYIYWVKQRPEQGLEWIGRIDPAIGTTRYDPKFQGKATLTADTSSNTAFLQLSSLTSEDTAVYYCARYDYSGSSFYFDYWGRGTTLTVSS VL: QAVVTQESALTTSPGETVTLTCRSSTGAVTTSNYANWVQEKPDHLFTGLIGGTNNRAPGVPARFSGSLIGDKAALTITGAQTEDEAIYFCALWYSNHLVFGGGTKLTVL | 1.53
144D464A LV10re HV10b (antibody, V domains shown, Humanized) VH: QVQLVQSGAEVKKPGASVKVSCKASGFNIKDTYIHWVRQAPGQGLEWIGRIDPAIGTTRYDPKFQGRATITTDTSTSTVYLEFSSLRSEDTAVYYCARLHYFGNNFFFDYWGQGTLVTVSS VL: QAVVTQEPSLTVSPGGTVTLTCRSSSGAVTTSNYANWVQEKPGQLFAGLIGGTNDRAPGVPARFSGSLLGGKAALTLSGAQPEDEAIYFCALWFSNHWVFGGGTKLTVL | 1.87

Lab note: next binder to report on.
Documented Kd of 144L249B LV9 HV10b (antibody, V domains shown, Humanized) VH: QVQLVQSGAEVKKPGASVKVSCKASGFNIKDTYIYWVRQAPGQGLEWIGRIDPAIGTTRYDPKFQGKATLTTDTSTSTAYLELSSLRSEDTAVYYCARYDYSGSSFYFDYWGQGTLVTVSS VL: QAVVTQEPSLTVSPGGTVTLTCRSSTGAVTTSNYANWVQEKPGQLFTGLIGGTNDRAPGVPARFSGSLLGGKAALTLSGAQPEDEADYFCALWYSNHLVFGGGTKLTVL : 1.39
